test system: BDF1 mice, P388 leukemia ip, median survival T/C; experiment: NCI In Vivo Anticancer Drug Screen. Data for tumor model P388 Leukemia (intraperitoneal) in B6D2F1 (BDF1) mice; details: endpoint: median survival time; dose: 50.0 mg/kg/injection; schedule: Q01DX001 (ip); vehicle: Klucel (hydroxypropylcellulose) (HPC); higher = longer survival
Inconclusive results and toxic doses are left out.
propertyLabel: T/C

S=c1[nH]nc(NC2CCCCC2)s1 :: 112 % of control
Cc1cc(C)c(S(=O)(=O)ON=C2c3ccccc3-c3ccccc32)c(C)c1 :: 109 % of control
O=C(c1ccc([N+](=O)[O-])cc1)C(Br)C(Br)c1ccncc1 (stereo not drawn) :: 105 % of control
C=CCOCCC(=O)OCC=C :: 86 % of control
COc1ccc(CCNC(=S)NCCc2ccc(OC)c(OC)c2)cc1OC :: 100 % of control
Cc1[nH]c2cc(Br)ccc2c1/C=N/NC(N)=S :: 102 % of control
O=NN(CCCl)C(=O)NC1CCCCC1 :: 113 % of control
O=C(CN1C(=O)c2ccccc2C1=O)c1ccc(C(F)(F)F)cc1 :: 96 % of control

###

System: BDF1 mice, P388 leukemia ip, median survival T/C
Assay: NCI In Vivo Anticancer Drug Screen. Data for tumor model P388 Leukemia (intraperitoneal) in B6D2F1 (BDF1) mice
Details: endpoint: median survival time; dose: 150.0 mg/kg/injection; schedule: Q04DX003 (ip); vehicle: Klucel (hydroxypropylcellulose) (HPC); higher = longer survival
Experimental: The antitumor activity of compounds was measured in mice bearing transplantable tumors. Survival or tumor size were measured and the results are expressed as the measurement made in the treated group (T) divided by the measurement made in the vehicle treated control group (C). The tumor model used in this assay is P388 Leukemia (intraperitoneal) in B6D2F1 (BDF1) mice
Inconclusive results and toxic doses are left out.
T/C values by entry
propertyLabel: T/C

CS(=O)(=O)Nc1ccc(Nc2c3ccccc3nc3ccccc23)cc1 :: 159 % of control
NC(CSCc1ccc(N(CCCl)CCCl)cc1)C(=O)O (centres undefined) :: 160 % of control
CC1=CC(C)(C)NC(=S)N1c1ccccc1 :: 100 % of control
CNC(=S)N/N=C(/C)CCc1c(C)nn(C(=S)NC)c1C :: 112 % of control

###

test system: BDF1 mice, P388 leukemia ip, median survival T/C; experiment: NCI In Vivo Anticancer Drug Screen. Data for tumor model P388 Leukemia (intraperitoneal) in B6D2F1 (BDF1) mice; conditions: endpoint: median survival time; dose: 25.0 mg/kg/injection; schedule: Q04DX003 (ip); vehicle: Klucel (hydroxypropylcellulose) (HPC)
Inconclusive results and toxic doses are left out. How the source made its calls: active means survival T/C of 150% or more; inactive means T/C below 125% in these data.
Classes used: Y = active, N = inactive

CC(=O)N(C)N(Cc1ccc(C#N)cc1)C(C)=O :: N
NC(CSC(c1ccccc1)(c1ccccc1)c1ccc2ccccc2c1)C(=O)O (centres undefined) :: Y
CC(=O)OC1CC(OC2C(O)CC(OC3C(O)CC(OC4CCC5(C)C(CCC6C5CCC5(C)C(C7=CC(=O)OC7)C(O)CC65O)C4)OC3C)OC2C)OC(C)C1OC1OC(CO)C(O)C(O)C1O (centres undefined) :: N
C[C@]12CCC(=O)C=C1CC[C@@H]1[C@@H]2C(=O)C[C@]2(C)C3=CC(=O)O[C@H]3C[C@@H]12 :: N
CC1C(=O)OC(C)(C)OC1=O :: N
CC(O)C#CC(C)O (centres undefined) :: N
Nc1nc(=S)c2[nH]c(N=Nc3ccc(S(N)(=O)=O)cc3)nc2[nH]1 :: Y
Cc1nnc(NS(=O)(=O)c2ccc(N=Nc3nc4[nH]c(N)nc(=S)c4[nH]3)cc2)s1 :: N
CN(C)c1ccc(C=O)c(Oc2ccccc2)c1 :: N

###

tested on: BDF1 mice, P388 leukemia ip, median survival T/C; experiment: NCI In Vivo Anticancer Drug Screen. Data for tumor model P388 Leukemia (intraperitoneal) in B6D2F1 (BDF1) mice; conditions: endpoint: median survival time; dose: 200.0 mg/kg/injection; schedule: Q04DX003 (ip); vehicle: saline with Tween-80; higher = longer survival
Toxic doses and inconclusive results are not listed.
propertyLabel: T/C

CCCN1CSC(=S)N(Cc2ccccc2)C1 :: 95 % of control
O=c1[nH]c(C(F)(F)F)nc2c1nc1n2CCC1 :: 100 % of control
COc1cc2c(cc1OC)C1CCN3C(=O)CCC3N1CC2 (centres undefined) :: 92 % of control
O=C1CCCCC1Oc1ccccc1 (centres undefined) :: 100 % of control
c1csc(-c2nc3ccccc3s2)c1 :: 100 % of control
CCOC(=O)C(O)(NC(=O)N/N=C/c1ccccc1)C(=O)OCC :: 112 % of control
O=C(C[n+]1ccccc1)N/N=C/c1ccc(O)c(O)c1 :: 86 % of control
CCOC(=O)CCCN(c1sc(C)c(C)c1C(=O)OCC)S(=O)(=O)c1ccc(C)cc1 :: 95 % of control
CCCNC(=O)Oc1ccc(C(=O)OCC)cc1 :: 109 % of control
Cc1c(C/C(=N/O)C(=O)O)[nH]c(=S)[nH]c1=O :: 87 % of control
Cc1ccc(C(=O)C2CC2)c(C)c1 :: 120 % of control
O=c1[nH]c(=O)n(CCc2cccs2)cc1F :: 108 % of control
N#Cc1c[nH]n2c(=S)ncnc12 :: 109 % of control
Clc1ccc2nc(CBr)cnc2c1 :: 103 % of control

###

tested on: BDF1 mice, P388 leukemia ip, median survival T/C; assay: NCI In Vivo Anticancer Drug Screen. Data for tumor model P388 Leukemia (intraperitoneal) in B6D2F1 (BDF1) mice; details: endpoint: median survival time; dose: 100.0 mg/kg/injection; schedule: Q01DX005 (ip); vehicle: saline with Tween-80; higher = longer survival
Toxic doses and inconclusive results are not listed.
propertyLabel: T/C

O=C1CN(Cc2ccccc2)CC(=O)N2CCCN12 :: 90 % of control
O=C(CCC[N+](=O)[O-])c1ccccc1 :: 113 % of control
CC(Oc1ccc2ccccc2c1I)C(=O)O (stereo not drawn) :: 113 % of control
O=[N+]([O-])C(c1ccccc1)C(c1ccccc1)C(c1ccccc1)[N+](=O)[O-] (stereo not drawn) :: 87 % of control
COC(=O)c1cc(=O)nc(NN=C(C)C)s1 :: 100 % of control
O=C1CN(c2ccccc2)CC(=O)N2Cc3ccccc3CN12 :: 101 % of control
CN(C)Cc1ccc(-c2cc3onc(-c4ccccc4)c3c(=O)n2C)cc1 :: 94 % of control
CC1(C)COC(c2ccc(CC(Cc3ccc(C4(C(C)(C)C)OCC(C)(C)CO4)cc3)C(=O)O)cc2)(C(C)(C)C)OC1 :: 93 % of control

###

system: BDF1 mice, P388 leukemia ip, median survival T/C; test: NCI In Vivo Anticancer Drug Screen. Data for tumor model P388 Leukemia (intraperitoneal) in B6D2F1 (BDF1) mice; details: endpoint: median survival time; dose: 25.0 mg/kg/injection; schedule: Q01DX009 (ip); vehicle: water; higher = longer survival
Toxic doses and inconclusive results are not listed.
propertyLabel: T/C

C/C(=C\C(=O)O)CC(=O)O :: 109 % of control
CNCCN(C)CCN(C)Cc1ccc(OC)cc1 :: 101 % of control
CN(C(=N)N)c1ccc(C(=O)Oc2ccc([N+](=O)[O-])cc2)cc1 :: 100 % of control
O=C1CC(c2c[nH]c3nccnc23)NN1 (stereo not drawn) :: 101 % of control
BrCCC1(CCBr)CCCCC1 :: 97 % of control
CC(=O)C(C)[P+](c1ccccc1)(c1ccccc1)c1ccccc1 (stereo not drawn) :: 91 % of control
O=NO.O=N[O-].O=N[O-].[Co+3].[NH-]CC[N-]CCO.[NH-]CC[N-]CCO :: 104 % of control
CN(C)CCNC1=CC(=O)c2ccccc2C1=O :: 102 % of control

###

tested on: BDF1 mice, P388 leukemia ip, median survival T/C; experiment: NCI In Vivo Anticancer Drug Screen. Data for tumor model P388 Leukemia (intraperitoneal) in B6D2F1 (BDF1) mice; conditions: endpoint: median survival time; dose: 100.0 mg/kg/injection; schedule: Q01DX001 (ip); vehicle: Klucel (hydroxypropylcellulose) (HPC); higher = longer survival
Inconclusive results and toxic doses are left out.
propertyLabel: T/C

O=C1c2ccccc2CCC1(Br)C(Br)c1ccccc1 (configuration not stated) :: 100 % of control
COC(=O)c1ccc(OCCOc2ccc(C(C)(C)CC(C)(C)C)cc2)c(N)c1 :: 95 % of control
COc1ccccc1Oc1ccc(N=Cc2ccc(C)cc2)cc1 :: 100 % of control
O=C1c2ccccc2CCC12OC2c1ccc(Cl)cc1 (configuration not stated) :: 95 % of control
CCCCCCCC(=O)NCCCC :: 104 % of control
O=C1C(O)=Cc2cn(CCO)c(=O)c3ccc(-c4ccccc4)c1c23 :: 100 % of control
Cc1ccc(C(=O)C2CN(C)CCC2(O)c2ccc(C)cc2)cc1 (configuration not stated) :: 90 % of control
Cc1ccc2ccccc2c1NCCC(=O)O :: 103 % of control
Cc1cc(C)c(S(=O)(=O)ON=C2c3ccccc3-c3ccccc32)c(C)c1 :: 113 % of control
CN(CCOc1ccccc1O)CCOc1ccccc1O :: 120 % of control
c1ccc(-c2[nH]c3ccccc3c2-c2ccccc2)cc1 :: 109 % of control
Cc1ccc(NCC(O)CN2CCN(CC(O)CNc3ccc(C)cc3)CC2)cc1 (configuration not stated) :: 104 % of control
